Tested System: Akt1 (Homo sapiens, UniProt P31749)
Sequence (P31749 whole entry): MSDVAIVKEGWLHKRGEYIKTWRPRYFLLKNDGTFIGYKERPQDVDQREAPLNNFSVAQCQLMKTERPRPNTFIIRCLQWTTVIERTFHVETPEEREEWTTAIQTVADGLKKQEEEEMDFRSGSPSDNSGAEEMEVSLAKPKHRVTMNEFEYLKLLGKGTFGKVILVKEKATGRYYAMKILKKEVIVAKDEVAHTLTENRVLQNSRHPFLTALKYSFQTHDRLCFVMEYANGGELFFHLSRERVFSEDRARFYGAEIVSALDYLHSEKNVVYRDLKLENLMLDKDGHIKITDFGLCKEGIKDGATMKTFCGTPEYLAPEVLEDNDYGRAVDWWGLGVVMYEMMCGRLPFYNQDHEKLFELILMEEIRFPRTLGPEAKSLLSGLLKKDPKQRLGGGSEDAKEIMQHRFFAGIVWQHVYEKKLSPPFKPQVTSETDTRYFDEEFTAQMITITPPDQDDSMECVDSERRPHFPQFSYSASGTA

{"Compound": "CC(C)=CCCC1(C)C(CC=C(C)C)CC2(CC=C(C)C)C(=O)C(CC=C(C)C)=C(O)C1(C(=O)C(C)C)C2=O (stereo not shown)", "IC50 [nM]": 2500}
